Hello, the source for this data is patent US10947242B2, in case you need it.

biological target: Human recombinant PDE3A (hPDE3A) (Homo sapiens, UniProt Q14432); construct: purchased Scottish Biomedical; host or cells: Sf9 insect cells; assay: In vitro assay PDE3A (SPA, 3H-cAMP hydrolysis); assay type: biochemical; settings: read-out: hPDE3B Emax; read-out: Emax;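 further: the method names PDE3A and the table heading PDE3B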
Sequence (Q14432 whole entry): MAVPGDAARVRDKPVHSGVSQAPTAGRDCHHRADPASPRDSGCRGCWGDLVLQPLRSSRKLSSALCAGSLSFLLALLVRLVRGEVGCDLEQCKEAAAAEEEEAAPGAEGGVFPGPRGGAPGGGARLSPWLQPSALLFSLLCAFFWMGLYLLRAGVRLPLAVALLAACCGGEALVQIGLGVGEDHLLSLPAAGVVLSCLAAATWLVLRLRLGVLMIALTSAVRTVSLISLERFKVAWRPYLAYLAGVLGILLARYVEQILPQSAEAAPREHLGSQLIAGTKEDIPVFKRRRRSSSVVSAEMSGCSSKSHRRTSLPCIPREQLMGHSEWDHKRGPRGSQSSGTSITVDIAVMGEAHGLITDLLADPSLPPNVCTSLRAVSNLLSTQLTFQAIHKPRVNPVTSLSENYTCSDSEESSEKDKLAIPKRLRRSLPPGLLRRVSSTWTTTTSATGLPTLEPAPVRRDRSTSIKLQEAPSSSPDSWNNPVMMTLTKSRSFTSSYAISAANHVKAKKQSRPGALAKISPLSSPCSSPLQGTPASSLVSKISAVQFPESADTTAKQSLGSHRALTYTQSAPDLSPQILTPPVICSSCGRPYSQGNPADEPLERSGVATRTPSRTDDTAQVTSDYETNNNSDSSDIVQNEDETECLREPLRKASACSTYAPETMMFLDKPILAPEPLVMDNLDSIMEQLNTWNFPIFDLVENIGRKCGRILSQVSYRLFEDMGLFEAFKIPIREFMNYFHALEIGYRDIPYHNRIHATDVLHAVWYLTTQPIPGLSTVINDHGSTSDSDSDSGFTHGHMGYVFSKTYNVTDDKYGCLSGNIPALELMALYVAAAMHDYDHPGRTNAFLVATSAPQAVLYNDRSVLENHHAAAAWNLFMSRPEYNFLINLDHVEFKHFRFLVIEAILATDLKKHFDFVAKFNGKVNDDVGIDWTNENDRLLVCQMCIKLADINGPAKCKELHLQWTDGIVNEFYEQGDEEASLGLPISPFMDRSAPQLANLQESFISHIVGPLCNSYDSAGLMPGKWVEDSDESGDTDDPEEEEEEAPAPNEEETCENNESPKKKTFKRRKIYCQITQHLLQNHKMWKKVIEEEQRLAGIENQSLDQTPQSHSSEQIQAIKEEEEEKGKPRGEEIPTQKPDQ
Just a reminder that ties go to class 0: only Emax strictly below 90% counts as class 1.

Cc1cc([C@H]2CN(C(=O)c3ccc4ncsc4c3)CC[C@@H]2C)n2ncnc2n1
class 1
O=C(c1cc2n(n1)CCO2)N1[C@H]2CC[C@H](c3cc(C(F)F)nc4ncnn34)[C@@H]1CC2
class 1
CN1CCOc2cc(C(=O)N3[C@H]4CC[C@H](c5cc(C(F)F)nc6ncnn56)[C@@H]3CC4)ccc21
class 0
Cn1ccc2cc(C(=O)N3[C@H]4CC[C@H](c5cc(C(F)F)nc6ncnn56)[C@@H]3CC4)ccc21
class 0
COc1c(C)cc(C(=O)N2[C@H]3CC[C@H](c4cc(C(F)F)nc5ncnn45)[C@@H]2CC3)cc1C
class 1
Cc1cc(C(=O)N2CC[C@@H](C)[C@H](c3cc(C(F)F)nc4ncnn34)C2)cc(CO)n1
class 1

Query: Does this molecule meet the criterion Emax < 90%? Cc1c(C(=O)N2CC[C@@H](C)[C@H](c3cc(C(F)F)nc4ncnn34)C2)oc2ccccc12
Response: class 0

Query: For Cc1csc(C(=O)N2CC[C@@H](C)[C@H](c3cc(C(F)F)nc4ncnn34)C2)c1Cl , is the recorded Emax below the cut-off of 90%?
Response: class 1

Query: # TODO verify Emax < 90% strictly for this molecule: Cc1cc2ccc(C(=O)N3CC[C@@H](C)[C@H](c4cc(C(F)F)nc5ncnn45)C3)cn2c1
Response: class 0

Query: Bench note: check whether Cc1cc([C@@H]2CN(C(=O)c3ccc4ncsc4c3)CC[C@H]2C)n2ncnc2n1 shows Emax below 90%
Response: class 0

###

target: Human recombinant PDE2A (hPDE2A) (Homo sapiens); construct: His tag (inferred from metal chelate purification); made in house; host or cells: Sf9 insect cells (baculovirus); assay: In vitro assay PDE2A (SPA, 3H-cGMP hydrolysis); format: biochemical; conditions: read-out: hPDE2A Emax
Sequence (O00408 whole entry): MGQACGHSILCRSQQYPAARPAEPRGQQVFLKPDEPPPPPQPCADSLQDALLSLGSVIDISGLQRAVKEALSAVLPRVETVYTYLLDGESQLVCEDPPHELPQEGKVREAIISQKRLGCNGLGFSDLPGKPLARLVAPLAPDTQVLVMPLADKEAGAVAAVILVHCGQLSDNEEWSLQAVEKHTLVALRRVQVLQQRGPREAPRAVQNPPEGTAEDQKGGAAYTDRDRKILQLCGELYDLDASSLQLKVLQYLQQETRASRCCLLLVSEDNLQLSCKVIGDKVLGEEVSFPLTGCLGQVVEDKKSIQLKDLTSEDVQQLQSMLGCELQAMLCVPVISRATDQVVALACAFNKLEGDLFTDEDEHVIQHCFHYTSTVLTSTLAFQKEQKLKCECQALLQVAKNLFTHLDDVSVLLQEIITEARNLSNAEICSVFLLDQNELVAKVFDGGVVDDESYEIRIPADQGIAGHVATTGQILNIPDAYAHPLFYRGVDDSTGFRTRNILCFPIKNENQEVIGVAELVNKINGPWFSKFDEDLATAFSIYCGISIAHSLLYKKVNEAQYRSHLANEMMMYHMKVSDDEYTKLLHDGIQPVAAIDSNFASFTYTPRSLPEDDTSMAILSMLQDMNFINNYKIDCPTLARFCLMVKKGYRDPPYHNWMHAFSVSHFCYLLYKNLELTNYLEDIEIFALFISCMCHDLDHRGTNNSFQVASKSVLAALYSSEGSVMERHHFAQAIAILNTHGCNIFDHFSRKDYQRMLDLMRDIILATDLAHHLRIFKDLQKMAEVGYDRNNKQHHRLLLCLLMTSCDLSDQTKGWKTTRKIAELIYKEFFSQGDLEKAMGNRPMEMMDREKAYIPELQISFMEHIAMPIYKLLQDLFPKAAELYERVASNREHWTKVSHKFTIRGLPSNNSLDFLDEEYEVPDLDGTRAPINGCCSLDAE
MEASURE: Emax

O=C(c1ccc(F)c(Cl)c1)N1[C@H]2CC[C@H](c3cc(C(F)F)nc4ncnn34)[C@@H]1CC2
99%
C[C@@H]1CCN(C(=O)c2cc(Cl)ncc2Cl)C[C@H]1c1cc(C(F)F)nc2ncnn12
99%

Entry COc1ccc(C(=O)N2CC[C@@H](C)[C@H](c3cc(C(F)F)nc4ncnn34)C2)cn1 — recorded Emax = 99%

Memo: O=C(c1ccc(F)c(F)c1)N1[C@H]2CC[C@H](c3cc(C(F)F)nc4ncnn34)[C@@H]1CC2 , reported Emax: 99%

Per the record, Cc1csc(C(=O)N2CC[C@H](C)[C@@H](c3cc(C(F)F)nc4ncnn34)C2)c1 has Emax of 28%

Note to self: Emax recorded for O=C(c1ccc2ccccc2n1)N1[C@H]2CC[C@H](c3cc(C(F)F)nc4ncnn34)[C@@H]1CC2 was 98%

// Emax lookup, molecule = Cc1csc2ccc(C(=O)N3CC[C@@H](C)[C@H](c4cc(C(F)F)nc5ncnn45)C3)nc12 , result: 101%

Just so you know, measured Emax for Cn1ncc2cc(C(=O)N3[C@H]4CC[C@H](c5cc(C(F)F)nc6ncnn56)[C@@H]3CC4)ccc21 came out at 101%

Given item O=C(c1ccc(Cl)c(Cl)c1)N1[C@H]2CC[C@H](c3cc(C(F)F)nc4ncnn34)[C@@H]1CC2 , the value recorded as its Emax is 99%

Item: C[C@@H]1CCN(C(=O)c2ccc(C(F)(F)F)nc2)C[C@H]1c1cc(C(F)F)nc2ncnn12 | Emax: 97%

###

Target: Human recombinant PDE10A (hPDE10A) (Homo sapiens)
Construct: His tag (inferred from metal chelate purification); made in house; host or cells: Sf9 insect cells (baculovirus)
Sequence (Q9Y233 267-1055): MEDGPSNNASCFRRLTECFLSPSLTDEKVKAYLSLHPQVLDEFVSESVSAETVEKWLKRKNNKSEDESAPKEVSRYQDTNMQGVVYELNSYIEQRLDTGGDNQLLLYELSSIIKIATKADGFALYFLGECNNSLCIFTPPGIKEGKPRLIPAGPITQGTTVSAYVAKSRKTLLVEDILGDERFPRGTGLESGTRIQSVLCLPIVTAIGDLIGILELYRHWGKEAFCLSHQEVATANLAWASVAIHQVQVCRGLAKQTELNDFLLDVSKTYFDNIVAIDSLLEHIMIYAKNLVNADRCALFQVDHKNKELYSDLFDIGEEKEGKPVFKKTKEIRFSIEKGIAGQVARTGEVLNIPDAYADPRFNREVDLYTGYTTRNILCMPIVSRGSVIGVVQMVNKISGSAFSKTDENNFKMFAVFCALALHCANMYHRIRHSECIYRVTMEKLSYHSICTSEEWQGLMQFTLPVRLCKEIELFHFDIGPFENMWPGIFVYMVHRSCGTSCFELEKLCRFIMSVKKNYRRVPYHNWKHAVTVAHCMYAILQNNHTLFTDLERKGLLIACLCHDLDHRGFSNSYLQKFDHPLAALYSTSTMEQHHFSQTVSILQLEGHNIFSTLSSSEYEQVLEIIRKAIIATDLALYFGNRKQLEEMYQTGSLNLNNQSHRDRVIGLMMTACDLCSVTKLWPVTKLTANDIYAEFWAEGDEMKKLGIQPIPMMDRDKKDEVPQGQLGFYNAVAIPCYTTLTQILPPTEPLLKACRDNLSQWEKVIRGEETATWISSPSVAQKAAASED
Experiment: In vitro assay PDE10A, human clone (SPA, 3H-cAMP hydrolysis)
Type: biochemical
Conditions: human clone by default (no (r) mark); read-out: hPDE10A2 or rPDE10A2 Emax
Description: Rat recombinant PDE10A (rPDE10A2) was expressed in Sf9 cells using a recombinant rPDE10A baculovirus construct. […] Tested compounds were dissolved and diluted in 100% DMSO to a concentration 100 fold of the final concentration in the assay. […] After sedimentation of the beads during 30 minutes the radioactivity was measured in a Perkin Elmer Topcount scintillation counter and results were expressed as cpm. […]
MEASURE: Emax (%)
Provide only the numeric value, understood in %.

The cases that follow already have their Emax on record.
Cc1cc(Cl)cc(C(=O)N2[C@H]3CC[C@H](c4cc(C(F)F)nc5ncnn45)[C@@H]2CC3)c1 [Compound 339]
95
C[C@@H]1CCN(C(=O)c2ccc3scnc3c2)C[C@H]1c1cc(C(F)F)nc2ncnn12 [Compound 227]
98
Cc1cc2ccc(C(=O)N3[C@H]4CC[C@H](c5cc(C(F)F)nc6ncnn56)[C@@H]3CC4)cn2c1 [Compound 307]
97

Param item: Cn1ccc2cc(C(=O)N3[C@H]4CC[C@H](c5cc(C(F)F)nc6ncnn56)[C@@H]3CC4)ccc21 [Compound 295] ; param system: Human recombinant PDE10A (hPDE10A) (Homo sapiens); output Emax: 98

Record for Cc1cc([C@@H]2CN(C(=O)c3cc(C4CC4)ncc3C(F)(F)F)CC[C@H]2C)n2ncnc2n1 [Compound 283] under target or system Human recombinant PDE10A (hPDE10A) (Homo sapiens): Emax reported as 98

Recorded Emax for Cc1cc(C)cc(C(=O)N2CC[C@H](C)[C@@H](c3cc(C(F)F)nc4ncnn34)C2)c1 [Compound 214] on Human recombinant PDE10A (hPDE10A) (Homo sapiens) was 30

Human recombinant PDE10A (hPDE10A) (Homo sapiens) data for COc1c(C)cc(C(=O)N2[C@H]3CC[C@H](c4cc(C(F)F)nc5ncnn45)[C@@H]2CC3)cc1C [Compound 292] ; its Emax: 94

###

Molecular target: PDE2A (Rattus norvegicus, UniProt Q01062)
Construct: Twenty μm-thick striatal sections were cut; from tissue; host or cells: rat brain, striatal sections
Sequence (Q01062 1-928): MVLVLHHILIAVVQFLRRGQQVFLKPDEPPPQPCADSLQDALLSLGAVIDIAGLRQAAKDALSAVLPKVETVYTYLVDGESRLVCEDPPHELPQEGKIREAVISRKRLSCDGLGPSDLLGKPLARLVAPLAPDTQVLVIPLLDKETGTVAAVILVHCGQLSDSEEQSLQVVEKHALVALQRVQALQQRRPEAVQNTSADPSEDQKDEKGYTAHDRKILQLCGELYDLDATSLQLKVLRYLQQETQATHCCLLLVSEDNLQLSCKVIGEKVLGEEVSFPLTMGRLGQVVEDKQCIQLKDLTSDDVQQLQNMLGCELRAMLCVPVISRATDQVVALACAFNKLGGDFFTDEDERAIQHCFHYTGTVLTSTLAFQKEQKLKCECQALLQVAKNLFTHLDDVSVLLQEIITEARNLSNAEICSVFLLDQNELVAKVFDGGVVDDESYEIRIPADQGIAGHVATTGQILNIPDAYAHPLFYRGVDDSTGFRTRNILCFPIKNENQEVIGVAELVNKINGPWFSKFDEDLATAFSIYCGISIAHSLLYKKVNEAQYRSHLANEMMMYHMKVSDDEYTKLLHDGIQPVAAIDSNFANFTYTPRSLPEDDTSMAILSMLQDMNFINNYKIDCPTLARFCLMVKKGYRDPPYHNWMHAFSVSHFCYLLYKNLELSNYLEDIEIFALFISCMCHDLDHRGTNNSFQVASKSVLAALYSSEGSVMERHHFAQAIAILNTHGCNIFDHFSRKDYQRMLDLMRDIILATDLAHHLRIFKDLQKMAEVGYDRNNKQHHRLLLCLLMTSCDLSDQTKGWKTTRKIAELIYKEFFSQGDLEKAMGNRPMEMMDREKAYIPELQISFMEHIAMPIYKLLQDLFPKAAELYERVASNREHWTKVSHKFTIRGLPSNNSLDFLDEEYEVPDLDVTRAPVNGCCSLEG
Experiment: PDE2 occupancy by test compounds, ex-vivo autoradiography with [3H]B-17a
Type: in vivo, Male Wistar rats
Details: sc, 10 mg/kg, route SC (subcutaneous), percentage receptor occupancy, ex-vivo autoradiography, striatum
MEASURE: receptor occupancy at 10 mg/kg (%)
Write it as a number; the unit % goes unstated.

Some molecules with known receptor occupancy at 10 mg/kg results, for comparison:
C[C@@H]1CCN(C(=O)c2ccc3scnc3c2)C[C@H]1c1cc(C(F)F)nc2ncnn12 [Compound 227]
18
Cc1cc(C(=O)N2CC[C@@H](C)[C@H](c3cc(C(F)F)nc4ncnn34)C2)cc(C)c1C#N [Compound 78]
77
COc1c(C)cc(C(=O)N2CC[C@@H](C)[C@](F)(c3cc(C(F)F)nc4ncnn34)C2)cc1C [Compound 74]
14

Continue with the next molecule.
The molecule listed as C[C@@H]1CCN(C(=O)c2ccc3ncsc3c2)C[C@H]1c1cc(C(F)F)nc2ncnn12 [Compound 228] has a reported receptor occupancy at 10 mg/kg of 92
